- TARGET SYSTEM: T1, GFP-9S library array, motif 4 ND N98E;D124T (synthetic construct, N98E;D124T)
- T1 chain: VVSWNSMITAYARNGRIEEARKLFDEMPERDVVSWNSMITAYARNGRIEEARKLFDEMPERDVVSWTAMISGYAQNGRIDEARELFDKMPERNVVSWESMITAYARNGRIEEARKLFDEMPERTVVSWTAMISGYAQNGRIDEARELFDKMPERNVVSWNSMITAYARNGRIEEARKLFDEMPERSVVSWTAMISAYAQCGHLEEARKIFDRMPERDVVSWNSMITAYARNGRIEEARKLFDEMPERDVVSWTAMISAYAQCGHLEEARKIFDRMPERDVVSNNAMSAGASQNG
- EXPERIMENT DESCRIPTION: high-throughput RNA pulldown from lysate on Ni-NTA beads; HRP: 50 mM Tris pH 8, 150 mM NaCl, 1 mM beta-mercaptoethanol, 50 ug/ml BSA, 3 ug/ml yeast RNA, 0.5% heparin; ITC and FP: Tris pH 8, 200 mM KCl, 5% glycerol; MST: 50 mM Tris pH 8, 200 mM NaCl, 1 mM DTT, BSA, heparin, 0.05% Tween 20
- TEST CONDITIONS: tags: N-terminal His-eGFP; label: 5' IRDye 800CW
PARAMETER: Kd (nM)
Answers are plain numbers, in nM.

AUUAUACGUGA (ssRNA) [IR-rpoA-U] : 476

Could you now consider this next binder?
Prompt: # get_value(readout='Kd', item= AUUAAACGUGA (ssRNA) [IR-rpoA-A] )
Completion: 339
